# assay-procedure: Cytotoxicity against human HT1080 cells assessed as reduction cell viability after 72 hrs by WST8-based colorimetric analysis
# Format: functional
# conditions-used: HT-1080, 72 h
Where a name gives a salt, the structure may show the parent alone.
recorded-endpoint: pIC50
pIC50 here is simply -log10 of the concentration when that concentration is written in mol/L.

C[C@@H]1[C@@H](Nc2ccccc2C(=O)O)[C@@H](C)C(=O)[C@@H](C)[C@@H](O)CC(=O)O[C@@H]1c1cc(O)cc(O)c1; 4.18
C[C@@H]1[C@@H](Nc2ccccc2O)[C@@H](C)C(=O)[C@@H](C)[C@@H](O)[C@H](C)C(=O)O[C@@H]1c1cc(O)cc(O)c1; 4.53

The record that follows has no pIC50 shown yet.
Problem: Hello, please tell me recorded pIC50 for this one: COc1cccc2c1C(=O)c1c(O)c3c(c(O)c1C2=O)C[C@@](O)(C(=O)CO)C[C@@H]3O[C@H]1C[C@H](N)[C@H](O)[C@H](C)O1 [DOXORUBICIN HYDROCHLORIDE]
Solution: 6.42
